readoutLabel: melting point

Past entries and their recorded results:
Look up melting point: COC(=O)c1cccc(OCc2ccccc2)c1
74 to 77 °C

melting point lookup needed for COc1cc(-c2ccc(C(C)C)cc2)cc2oc(=O)c(Cl)c(C)c12 , thanks.
124 °C

Which melting point value belongs to Fc1ccc(-c2ccc(CCNc3ncnc4nccnc34)cc2)cn1 ?
184 to 186 °C

Tell me the measured melting point of CN(C)c1nc2sc3c(NCCN4CCOCC4)ncnc3c2c2c1COC(C)(C)C2 , please.
195 to 196 °C

Query: melting point; subject: CC(=O)NC[C@H]1CN(c2ccc(C(=O)c3cnc4c5ccccc5ccn34)cc2)C(=O)O1
239 to 240 °C

Reported melting point for CC(C)c1cc(C(O)(C(F)(F)F)C(F)(F)F)cc(C(C)C)c1NCC(=O)O : what is it?
130 to 132 °C

Look at this molecule and give its reported melting point. CN1c2cscc2C(=O)N(Cc2ccccc2)c2ccccc21
137 to 138 °C

Need melting point, item Cn1cc(-c2ccc(Br)cc2)c(=O)c(-c2cccc(C(=O)O)c2)c1
259 to 263 °C

# lookup: melting point of CCc1nn(C)c(NC(=O)Cc2ccc(Br)cc2)c1Cl
167 to 168 °C

***
What measured melting point goes with Cc1ccc2c(c1)C(=O)C1=NCCCN12 ?
128 to 130 °C
